target: HIV-1 JR-CSF Env F317A (HIV-1 isolate JR-CSF) (UniProt P20871); assay: cell-based or functional assay
endpoint: Fold IC50 increase relative to wild-type (fold)
# value in fold; strip the unit string

Below are worked cases with known answers.
- binder: "PGT-128 (antibody, V domains shown) VH: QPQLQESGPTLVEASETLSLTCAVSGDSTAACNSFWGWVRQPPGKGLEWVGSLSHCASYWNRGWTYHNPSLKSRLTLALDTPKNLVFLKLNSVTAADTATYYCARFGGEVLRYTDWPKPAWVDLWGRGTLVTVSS VL: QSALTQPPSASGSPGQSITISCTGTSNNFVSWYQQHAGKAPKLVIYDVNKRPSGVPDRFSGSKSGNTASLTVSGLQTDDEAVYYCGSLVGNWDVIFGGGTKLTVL"
  Fold IC50 increase relative to wild-type / fold: 0.8
- binder: "PGT-131 (antibody, V domains shown) VH: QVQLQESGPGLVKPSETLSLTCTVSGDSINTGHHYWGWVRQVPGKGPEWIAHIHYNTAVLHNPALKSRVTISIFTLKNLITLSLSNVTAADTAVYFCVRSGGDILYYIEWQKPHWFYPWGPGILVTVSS VL: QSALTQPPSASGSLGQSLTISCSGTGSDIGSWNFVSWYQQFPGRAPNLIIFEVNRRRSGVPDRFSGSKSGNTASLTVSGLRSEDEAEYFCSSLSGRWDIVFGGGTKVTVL"
  Fold IC50 increase relative to wild-type / fold: 96

// switching to the query binder
Please list Fold IC50 increase relative to wild-type recorded for the binder PGT-130 (antibody, V domains shown) VH: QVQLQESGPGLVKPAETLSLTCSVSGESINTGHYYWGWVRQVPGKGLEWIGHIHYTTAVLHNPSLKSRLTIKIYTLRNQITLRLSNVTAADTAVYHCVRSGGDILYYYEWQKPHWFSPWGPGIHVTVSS VL: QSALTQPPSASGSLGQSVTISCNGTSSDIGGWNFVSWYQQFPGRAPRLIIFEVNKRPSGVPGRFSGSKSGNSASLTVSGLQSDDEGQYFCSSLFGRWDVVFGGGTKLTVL
17

# credit: patent US20200024330A1
